Assignment: determine reported inhibition for the given compounds.
test: loss of swimming-algae plug formation – whole organism, Chlamydomonas reinhardtii, WT vs cilia-less mutant, absorbance, 96-well, primary screen (AID 463189); conditions: Chlamydomonas reinhardtii gravitaxis, OD600 absorbance, 2 days; at 10 µM; active compounds read high;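 further: 0% = wild type cc124 cells in DMSO and 100% = ciliumless bld1 mutant cells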
API: value field is a number in %; no unit string.

Query string: Entry under review: "CCN(CCCl)Cc1ccccc1Br" . Reported inhibition?
Result string: 6.59

Query string: Entry under review: "CC(C)[C@H]1C(=O)N2CCC[C@H]2[C@]2(O)O[C@](NC(=O)[C@@H]3C=C4c5cccc6[nH]cc(c56)C[C@H]4N(C)C3)(C(C)C)C(=O)N12" . Reported inhibition?
Result string: 13.5

Query string: Entry under review: "COc1cc2[nH]c(=O)n(-c3cccc(Cl)c3)c(=O)c2cc1OC" . Reported inhibition?
Result string: -6.85

Query string: Entry under review: "O=C(O)c1nn(Cc2ccc(Cl)cc2Cl)c2ccccc12" . Reported inhibition?
Result string: -0.768

Query string: Entry under review: CCCC12CN3CN(C1)CC(CCC)(C3)C2O (configuration not stated) . Reported inhibition?
Result string: -2.85

Query string: Entry under review: CCCN(CCC)C1CCc2cccc(O)c2C1 (configuration not stated) . Reported inhibition?
Result string: 1.17

Query string: Entry under review: "CC(=O)OCC1=C(C(=O)[O-])N2C(=O)[C@@H](NC(=O)CCC[C@@H](N)C(=O)[O-])[C@H]2SC1.[Zn+2]" . Reported inhibition?
Result string: 3.46

Query string: Entry under review: "COc1ccc(Cn2c(O)c(C=NCCN3CCOCC3)c(=O)[nH]c2=O)cc1" . Reported inhibition?
Result string: -7.73

Query string: Entry under review: "NCCCP(=O)(O)O" . Reported inhibition?
Result string: 13.9

Query string: Entry under review: "O=c1[nH]c(=O)n(Cc2ccco2)c(O)c1C=NCc1ccc2c(c1)OCO2" . Reported inhibition?
Result string: 18.3

Query string: Entry under review: "C[C@]12CC[C@H](O)CC1=CC[C@@H]1[C@@H]2CC[C@]2(C)C(=O)CC[C@@H]12" . Reported inhibition?
Result string: -2.3

Query string: Entry under review: "Nc1ccc(C2(c3ccc(N)cc3)CN3CCC2CC3)cc1" . Reported inhibition?
Result string: 8.44

Query string: Entry under review: "CCOC(=O)[C@@]1(C#N)[C@@H]2C=CC(C(N)=O)=CN2[C@@H](C(N)=O)[C@@H]1c1cccc(Cl)c1" . Reported inhibition?
Result string: 24.1

Query string: Entry under review: "CCCN1CCc2cccc3c2[C@H]1Cc1ccc(O)c(O)c1-3" . Reported inhibition?
Result string: 0.62

Query string: Entry under review: "Cc1ccc(S(=O)(=O)N[C@@H](CCCCN)C(=O)CCl)cc1" . Reported inhibition?
Result string: 5.31

Query string: Entry under review: "C=CCn1c(O)c(C=NCCN(C)C)c(=O)[nH]c1=O" . Reported inhibition?
Result string: -19.1

Query string: Entry under review: "C=C(C)[C@H]1CN[C@H](C(=O)O)[C@H]1CC(=O)O" . Reported inhibition?
Result string: -2.25

Query string: Entry under review: CCCCCCCCCCCCCC(=O)O[C@@H]1[C@@H](C)[C@@]2(O)[C@@H](C=C(CO)C[C@@]3(O)C(=O)C(C)=C[C@@H]23)C2C(C)(C)[C@@]21OC(C)=O (some centres not stated) . Reported inhibition?
Result string: -13.4

Query string: Entry under review: "NCCc1ccc(S(=O)(=O)F)cc1" . Reported inhibition?
Result string: 0.651

Query string: Entry under review: "C#CCN(C)[C@@H](C)Cc1ccccc1" . Reported inhibition?
Result string: 7.92

Query string: Entry under review: CC1(C)CC(n2[nH]c(=O)c3c2NC(=O)CSC3c2ccccc2)CCO1 (configuration not stated) . Reported inhibition?
Result string: -16.8

Query string: Entry under review: "Nc1ccncc1" . Reported inhibition?
Result string: 14.4
